test system: C. elegans; assay: microbe, parasite or virus in culture; conditions: Caenorhabditis elegans, 0 h, read-out: Percentage of motility inhibition 0 h, Table S2, C. elegans SS assay, 110 μM, 0 h, averages of 4 data points
Entries are grouped by inhibition at 110 µM into these classes: low range: < 3%; mid range: ≥ 3% and < 20%; high range: ≥ 20%

compound: CCOC(=O)c1ccc(O)cc1 [Ethylparaben]
testSystem: C. elegans
qualitativeLabel: high range

compound: C[C@H](CC(=O)C[C@@H](C)[C@H]1C[C@H](O)[C@@]2(C)C3=C(C(=O)C[C@]12C)[C@@]1(C)CCC(=O)C(C)(C)[C@@H]1C[C@@H]3O)C(=O)O [Ganoderic acid A]
testSystem: C. elegans
qualitativeLabel: mid range

compound: CC[C@@]1(O)C(=O)OCc2c1cc1n(c2=O)Cc2cc3c(N)cccc3nc2-1 [9‐Aminocamptothecin]
testSystem: C. elegans
qualitativeLabel: low range

compound: C[C@H]1[C@H](C)CC[C@]2(C(=O)O)CC[C@]3(C)C(=CC[C@@H]4[C@@]5(C)C[C@@H](O)[C@H](O)[C@@](C)(CO)[C@@H]5[C@H](O)C[C@]43C)[C@H]12 [Madecassic acid]
testSystem: C. elegans
qualitativeLabel: low range

compound: CC(=O)OCC(CCn1cnc2cnc(N)nc21)COC(C)=O [Famciclovir]
testSystem: C. elegans
qualitativeLabel: mid range

compound: CC1=C(/C=C/C(C)=C/C=C/C(C)=C/C(=O)O)C(C)(C)CCC1 [Retinoic acid]
testSystem: C. elegans
qualitativeLabel: mid range

compound: O=C(OCc1ccccc1)c1ccccc1 [Benzyl benzoate]
testSystem: C. elegans
qualitativeLabel: high range

compound: CNCC(O)c1ccc(O)cc1 (stereo not shown) [Synephrine]
testSystem: C. elegans
qualitativeLabel: mid range

compound: O=C(/C=C/c1ccc(O)cc1)c1ccc(O)cc1O [Isoliquiritigenin]
testSystem: C. elegans
qualitativeLabel: mid range

compound: CC(=O)[C@H]1CC[C@H]2[C@@H]3CCC4=CC(=O)CC[C@]4(C)[C@H]3CC[C@]12C [Progesterone]
testSystem: C. elegans
qualitativeLabel: low range

compound: O=C(O)c1cn(C2CC2)c2cc(N3CCC(O)(COc4ccc(N5C[C@H](CO)OC5=O)cc4F)CC3)c(F)cc2c1=O [Cadazolid]
testSystem: C. elegans
qualitativeLabel: mid range

compound: O=C1C[C@@H](c2ccc(O)cc2)Oc2cc(O[C@@H]3O[C@H](CO)[C@@H](O)[C@H](O)[C@H]3O)cc(O)c21 [Prunin]
testSystem: C. elegans
qualitativeLabel: mid range

compound: COc1cc(O)c2c(=O)c(-c3ccc(O)cc3)coc2c1 [Prunetin]
testSystem: C. elegans
qualitativeLabel: low range

compound: CC=CC(=O)N(CC)c1ccccc1C (mixture of isomers) [Crotamiton]
testSystem: C. elegans
qualitativeLabel: high range

compound: CC(C)(C)C#Cc1cc(N(C(=O)[C@H]2CC[C@H](C)CC2)[C@H]2CC[C@H](O)CC2)c(C(=O)O)s1 [VX‐222]
testSystem: C. elegans
qualitativeLabel: high range

compound: O[C@H]1[C@H]2c3cc4c(cc3CN3CCC(=C[C@@H]1O)[C@H]23)OCO4 [Lycorine]
testSystem: C. elegans
qualitativeLabel: high range

compound: CNC(=O)Oc1ccccc1OC(C)C [Propoxur]
testSystem: C. elegans
qualitativeLabel: mid range

compound: CC1=C(C/C=C(\C)CCC[C@H](C)CCC[C@H](C)CCCC(C)C)C(=O)c2ccccc2C1=O [Vitamin K1]
testSystem: C. elegans
qualitativeLabel: mid range

compound: Oc1cc(O)c2c(c1)O[C@@H](c1ccc(O)c(O)c1)[C@H](O)C2 [(‐)‐Catechin]
testSystem: C. elegans
qualitativeLabel: mid range

compound: C=C(C)[C@@H]1CC[C@]2(C)CC[C@]3(C)[C@H](CC[C@@H]4[C@@]5(C)CC[C@H](O)C(C)(C)[C@@H]5CC[C@]43C)[C@@H]12 [Lupeol]
testSystem: C. elegans
qualitativeLabel: low range

compound: CCOC(=O)C1=C[C@]2(CC)CCCN3CCc4c(n1c1ccccc41)[C@@H]32 [Vinpocetine]
testSystem: C. elegans
qualitativeLabel: low range

compound: CC(=O)OC/C=C(C)/C=C/C=C(C)/C=C/C1=C(C)CCCC1(C)C [Retinyl acetate]
testSystem: C. elegans
qualitativeLabel: low range

compound: COc1c(OC)c2nccc3c4ccccc4n(c1=O)c23 [4,5‐Dimethoxycanthin‐6‐one]
testSystem: C. elegans
qualitativeLabel: low range

compound: O=C(O)[C@H]1O[C@@H](Oc2cc3oc(-c4ccc(O)cc4)cc(=O)c3c(O)c2O)[C@H](O)[C@@H](O)[C@@H]1O [Scutellarin]
testSystem: C. elegans
qualitativeLabel: high range

compound: CC(C)(C)C(=O)C(Oc1ccc(Cl)cc1)n1ccnc1 (stereo not shown) [Climbazole]
testSystem: C. elegans
qualitativeLabel: high range

compound: N[C@@H](Cc1c[nH]cn1)C(=O)O [L-Histidine]
testSystem: C. elegans
qualitativeLabel: high range

compound: C[C@@]12C[C@@]3(O)O[C@@H](O1)[C@]1(COC(=O)c4ccc(O)cc4)[C@@H]3C[C@]12O[C@@H]1O[C@H](COC(=O)c2ccccc2)[C@@H](O)[C@H](O)[C@H]1O [Mudanpioside C]
testSystem: C. elegans
qualitativeLabel: high range

compound: C=C1C(=O)[C@]23C[C@H]1C[C@@H](O)[C@H]2[C@@]12CO[C@@H](O)[C@@H]1C(C)(C)CC[C@@H]2OC3=O [Nodosin]
testSystem: C. elegans
qualitativeLabel: low range

compound: CC(C)=CCC[C@](C)(O)[C@H]1CC[C@]2(C)[C@@H]1[C@H](O)C[C@@H]1[C@@]3(C)CC[C@H](O)C(C)(C)[C@@H]3[C@@H](O[C@@H]3O[C@H](CO)[C@@H](O)[C@H](O)[C@H]3O)C[C@]12C [Ginsenoside Rh1]
testSystem: C. elegans
qualitativeLabel: low range
